# System: SN12C renal
# EXPERIMENT_DESCRIPTION: NCI tumour cell line growth inhibition, 48 h
# TGI per entry

{"columns": ["MOLECULE", "TGI"],
 "data": [
  ["O=C(Nc1nc2ncn(CCOC(=O)c3ccccc3)c2c(=O)[nH]1)c1ccccc1", "> 100 µM"],
  ["CSC1=Nc2ccccc2-c2nc(-c3ccccc3)cc(-c3ccccc3)c2C1", "> 100 µM"],
  ["O=C(CC(O)(c1ccccc1)c1ccc(Cl)cc1)NC(=O)c1ccccc1O (configuration not stated)", "32 µM"],
  ["COc1cc2c(cc1OC)C1CN3C(=O)CCC3C(O)C1c1cc(OC)c(OC)cc1-2 (configuration not stated)", "> 100 µM"],
  ["COc1ccc(-c2oc3ccc(C)cc3c(=O)c2O)cc1", "> 100 µM"],
  ["Cc1cccc2c1C(=O)C1(Cc3ccccc3C1=O)C2 (configuration not stated)", "> 100 µM"],
  ["CCS[C@H]1NC(=O)C1[C@H](C)O[Si](C)(C)C(C)(C)C (some centres not stated)", "> 100 µM"],
  ["O=C(Cn1ccnc1[N+](=O)[O-])NCCO", "> 100 µM"],
  ["Cc1cc2c(cc1-c1cc3c(cc1C)C(C(C)C)=C(O)C(=O)/C3=C\\Nc1nc(-c3ccccc3)cs1)/C(=C/Nc1nc(-c3ccccc3)cs1)C(=O)C(O)=C2C(C)C", "48.4 µM"],
  ["Clc1ccc(Cl)c(N/N=C\\c2c[nH]c3ccccc23)c1", "22.3 µM"],
  ["Cn1cc(-c2ccc3cc(-c4ccc(CC(=O)Nc5cc(C(C)(C)C)nn5C)cc4)cnc3c2)cn1", "> 100 µM"],
  ["CCc1nc2ccccc2c(=O)n1/N=C(\\N=Nc1ccc(Cl)cc1)c1ccc(N(C)C)cc1", "> 100 µM"],
  ["Cc1c(CNc2ccc(Cl)c(C(=O)NC(CC(=O)O)C(=O)O)c2)ccc2nc(N)nc(N)c12 (configuration not stated)", "> 1000 µM"],
  ["[O-][n+]1onc2c3nn(-c4ccccc4)nc3ccc21", "> 100 µM"],
  ["COC(=O)c1c(OC(C)=O)ccc2c1c1c(OC(C)=O)c3ccccc3c(OC(C)=O)c1n2Cc1cc(OC)cc(OC)c1", "> 100 µM"],
  ["O=S(=O)(c1ccccc1)n1c(C(O)c2ccncc2)cc2ccccc21 (configuration not stated)", "> 100 µM"],
  ["Cc1cc(S(=O)(=O)Nc2nc3ccsc3c(=O)n2N)c(S)cc1Cl", "> 100 µM"],
  ["O=c1c(Cl)nsnc1Cl", "48.4 µM"],
  ["CCCCC/C=C1/CC(CO)(COC(=O)CC(C(C)C)C(C)C)OC1=O (configuration not stated)", "26 µM"],
  ["COc1ccc2oc(S(=O)(=O)N3CC(CCl)c4ccc([N+](=O)[O-])cc43)cc2c1 (configuration not stated)", "14 µM"],
  ["CC1(C)C2CCC1(CS(=O)(=O)Nc1ccccc1)C(=O)C2 (configuration not stated)", "> 100 µM"],
  ["Cn1ccnc1CCc1ccc(F)cc1F", "> 100 µM"],
  ["COc1ccc(/C=N\\N2CC(=O)N3C4C=CC(CC4)N3C2=O)cc1 (configuration not stated)", "> 100 µM"],
  ["CN(C)N=Nc1ccc([N+](=O)[O-])cc1C(N)=O", "> 100 µM"],
  ["COC(=O)C1=CC(=O)C(C(=O)Nc2ccc(OC)cc2)C(c2ccccc2)O1 (configuration not stated)", "> 89.1 µM"],
  ["COc1ccc(C2SC(N)=Nc3c2c(C)nn3C(=O)c2ccncc2)cc1 (configuration not stated)", "> 100 µM"],
  ["COc1cc(-c2cc(-c3ccc(N(C)C)cc3)nc(N3CCC(O)CC3)c2C#N)cc(OC)c1OC", "6.44 µM"],
  ["COCn1c(C)c(C)c2c(=O)oc(=O)[nH]c21", "> 100 µM"],
  ["Cc1cc(O)c(C(C)C)cc1NC(=O)Nc1cccc2ccccc12", "40.5 µM"],
  ["CCN1CCN(C(=O)[C@]23CC[C@@H](C)[C@H](C)[C@@H]2C2=CC[C@@H]4[C@@]5(C)C/C(=C/c6cccnc6)C(=O)C(C)(C)[C@@H]5CC[C@@]4(C)[C@]2(C)CC3)CC1", "3.01 µM"],
  ["Cc1nc2c(cc1C(=O)NN)c(=O)n(C)c(=O)n2C", "> 100 µM"],
  ["COC(c1ccsc1)C(C#N)(C#N)N=Cc1ccsc1 (configuration not stated)", "30.8 µM"]
]}
